// values below are reported CC50 at 72 h
Assay: Cytotoxicity assay (XTT / crystal violet)
Assay type: cell-based, African green monkey
Details: monkey; Vero cells, 72 h; read-out: Toxicity IC50
assay-readout: CC50 at 72 h (µM)

compound: O=C(Nc1cccc2nsnc12)c1cc(Br)ccc1NS(=O)(=O)c1ccc(Cl)cc1 [BP5]
assay-readout: CC50 at 72 h
unit-label: µM
reported: 50
--
compound: Cc1ccc(C(C)C)cc1OCC(=O)NN=Cc1cc([N+](=O)[O-])ccc1O [BP1]
assay-readout: CC50 at 72 h
unit-label: µM
reported: 20
--
compound: CC(C)C(C(=O)O)N1C(=O)/C(=C/c2ccc(Cl)cc2Cl)SC1=S (stereo not shown) [BP3]
assay-readout: CC50 at 72 h
unit-label: µM
reported: 200
--
compound: CSCCC(C(=O)O)N1C(=O)/C(=C/c2ccc(Cl)cc2Cl)SC1=S (stereo not shown) [BP9]
assay-readout: CC50 at 72 h
unit-label: µM
reported: 200

The reported numbers originate from patent US7132231B2.
